target: SARS-CoV-2 3CLpro (Severe acute respiratory syndrome coronavirus 2, UniProt P0DTD1); test: biochemical; assay type: biochemical
This section presents compounds with their documented Ratio (A/B) values.

>  <COMPOUND>
N#CC(C#N)=C(N)/C(C#N)=C/c1cc(O)c(O)c(O)c1 [Tyrphostin 51, reference compound]

>  <Ratio (A/B)>
2.1

$$$$
>  <COMPOUND>
CN1CC[C@@]2(C)c3cc(O)ccc3N(C)[C@@H]12 [(−)-Eseroline]

>  <Ratio (A/B)>
1.3

$$$$
>  <COMPOUND>
Cc1ccc(S(=O)(=O)N[C@@H](Cc2ccccc2)C(=O)CCl)cc1 [TPCK, Tosyl-L-Phe chloromethyl ketone]

>  <Ratio (A/B)>
1.8

$$$$

---

target: SARS-CoV-2 3CLpro (Severe acute respiratory syndrome coronavirus 2, UniProt P0DTD1); assay: biochemical; type: biochemical; settings: 4 h, LOPAC1280 primary screen with protease, 5 µM compound, replicate 1; read-out: Replicate_1 (LOPAC_screen_w_protease)
Counter-ions that a name gives are not always drawn.
MEASURED PARAMETER: inhibition at 5 µM (%)

>  <COMPOUND>
Cn1c(=O)[nH]c2ncn(C)c2c1=O

>  <UNIT LABEL>
%

>  <RESULT NUMBER>
1.95

$$$$
>  <COMPOUND>
CC1(C(=O)O)C2CCC(O2)C1(C)C(=O)O (stereo not shown)

>  <UNIT LABEL>
%

>  <RESULT NUMBER>
2.04

$$$$
>  <COMPOUND>
CC(CCc1ccc(O)cc1)NCCc1ccc(O)c(O)c1 (stereo not shown) [Dobutamine hydrochloride]

>  <UNIT LABEL>
%

>  <RESULT NUMBER>
2.05

$$$$
>  <COMPOUND>
COc1cc2c(cc1OC)-c1c/c(=N\c3c(C)cc(C)cc3C)n(C)c(=O)n1CC2 [Trequinsin hydrochloride]

>  <UNIT LABEL>
%

>  <RESULT NUMBER>
1.97

$$$$

---

This section presents compounds with their documented mean (LOPAC_screen_w_protease) values.
target: SARS-CoV-2 3CLpro (Severe acute respiratory syndrome coronavirus 2); assay: biochemical; format: biochemical; design: unit not given here; settings: LOPAC1280 primary screen with protease, 5 µM compound, mean of two replicates
Where a name gives a salt, the structure may show the parent alone.
MEASURED PARAMETER: mean (LOPAC_screen_w_protease)

>  <COMPOUND>
Nc1ncnc2c1ncn2[C@@H]1O[C@H](C(=O)NC2CC2)[C@@H](O)[C@H]1O

>  <RESULT NUMBER>
1.624

$$$$
>  <COMPOUND>
Cl.N[C@@H](CCC(=O)O)C(=O)O [L-Glutamic acid hydrochloride]

>  <RESULT NUMBER>
1.56

$$$$
>  <COMPOUND>
CNCC(O)c1ccc(O)cc1 (racemic) [(±)-Synephrine]

>  <RESULT NUMBER>
1.431

$$$$
>  <COMPOUND>
O=P(O)(O)C(Cl)(Cl)P(=O)(O)O

>  <RESULT NUMBER>
1.697

$$$$
>  <COMPOUND>
CCCn1c(=O)c2[nH]c(C3CCCC3)nc2n(CCC)c1=O

>  <RESULT NUMBER>
1.568

$$$$
>  <COMPOUND>
CC(C)Cc1ccc([C@H](C)C(=O)O)cc1 [S(+)-Ibuprofen]

>  <RESULT NUMBER>
1.7003

$$$$
>  <COMPOUND>
CCCCCCCCCCCCCCC[C@H](O)[C@H](N)CO (racemic) [DL-erythro-Dihydrosphingosine]

>  <RESULT NUMBER>
1.428

$$$$
>  <COMPOUND>
CCC(=O)c1ccc2c(c1)N(CCCN(C)C)c1ccccc1S2 [Propionylpromazine hydrochloride]

>  <RESULT NUMBER>
1.386

$$$$
>  <COMPOUND>
CC(C)C(=O)c1c(C(C)C)nn2ccccc12

>  <RESULT NUMBER>
1.697

$$$$
>  <COMPOUND>
CC(C)(C=O)Cc1cc(C(C)(C)C)c(O)c(C(C)(C)C)c1

>  <RESULT NUMBER>
1.552

$$$$
>  <COMPOUND>
CCSC(=N)Nc1ccc(C(F)(F)F)cc1.Cl [TFPI hydrochloride]

>  <RESULT NUMBER>
1.706

$$$$
>  <COMPOUND>
C1CCc2nnnn2CC1

>  <RESULT NUMBER>
1.601

$$$$
>  <COMPOUND>
C/C(O)=C(\C#N)C(=O)Nc1cc(Br)ccc1Br

>  <RESULT NUMBER>
1.507

$$$$
>  <COMPOUND>
CC(C[N+](C)(C)C)OC(N)=O (stereo not drawn) [Bethanechol chloride]

>  <RESULT NUMBER>
1.356

$$$$
>  <COMPOUND>
C[N+](C)(C)CCOC(N)=O

>  <RESULT NUMBER>
1.3763

$$$$
>  <COMPOUND>
Cl.Clc1ccc(N2CCN(Cc3c[nH]c4ncccc34)CC2)cc1 [L-745,870 hydrochloride]

>  <RESULT NUMBER>
1.375

$$$$
>  <COMPOUND>
CN1[C@@H]2CC[C@H]1C[C@@H](OC(=O)c1cc(Cl)cc(Cl)c1)C2 [3-Tropanyl-3,5-dichlorobenzoate]

>  <RESULT NUMBER>
1.4299

$$$$
>  <COMPOUND>
CC(=O)NCCc1c[nH]c2ccc(O)cc12 [N-Acetyl-5-hydroxytryptamine]

>  <RESULT NUMBER>
1.513

$$$$
>  <COMPOUND>
OCc1ccc(-c2nn(Cc3ccccc3)c3ccccc23)o1

>  <RESULT NUMBER>
1.333

$$$$
>  <COMPOUND>
Cl.NC(N)=NCCNS(=O)(=O)c1cccc2cnccc12 [HA-1004 hydrochloride]

>  <RESULT NUMBER>
1.6

$$$$
>  <COMPOUND>
Cl.c1ccc2c(N3CCNCC3)cccc2c1 [1-(1-Naphthyl)piperazine hydrochloride]

>  <RESULT NUMBER>
1.563

$$$$
>  <COMPOUND>
Cc1cc(C)c(NC(=O)C[C@H](CC(=O)O)c2cccc3ccccc23)c(C(=O)N2CCC3(CCCC3)CC2)c1

>  <RESULT NUMBER>
1.703

$$$$
>  <COMPOUND>
Nc1nc(Cl)nc2c1ncn2[C@@H]1O[C@H](COP(=O)(O)OP(=O)(O)OP(=O)(O)O)C(O)C1O (stereo in doubt)

>  <RESULT NUMBER>
1.575

$$$$
>  <COMPOUND>
COc1cc(OC)c(C=C2C(O)=Nc3ccccc32)c(OC)c1

>  <RESULT NUMBER>
1.465

$$$$
